src = the supplement of paper PMC10307832

Recorded measurements of relative viability, one per entry
- System: EKVX
- test-method-notes: relative viability (nuclei count vs DMSO), 5 days (fraction); higher = more cells survive
- condition-summary: first compound 0.03162 µM
Just the number, please, no unit attached.

Answered examples (2):
compound	observed-measurement
O=c1cc(N2CCOCC2)oc2c(-c3cccc4c3sc3ccccc34)cccc12 + N=C(N)NC(=N)NCCc1ccccc1 [Phenformin] (partner 250 µM)	0.238
O=c1cc(N2CCOCC2)oc2c(-c3cccc4c3sc3ccccc34)cccc12 + CCNC(=O)c1noc(-c2cc(C(C)C)c(O)cc2O)c1-c1ccc(CN2CCOCC2)cc1 [Luminespib] (partner 0.01 µM)	0.872

# ---- query compound ----
Prompt line: Reported relative viability, compound CCN(CC)CCCCNc1ncc2cc(-c3cc(OC)cc(OC)c3)c(NC(=O)NC(C)(C)C)nc2n1 + C[C@@H](Oc1cc(-c2cnn(C3CCNCC3)c2)cnc1N)c1c(Cl)ccc(F)c1Cl [Crizotinib] (partner 1 µM) : ____
Response line: 0.924

====

- System: HCC-78
- test-method-notes: relative viability (nuclei count vs DMSO), 5 days (fraction); higher = more cells survive
- condition-summary: first compound 0.253 µM
relative viability overview
Could you keep your reply to the number by itself?

molecule	test-system	relative viability
COc1nc(C)cnc1NS(=O)(=O)c1cccnc1-c1ccc(-c2nnco2)cc1 [Zibotentan] + NC(=O)Nc1cc(-c2cccc(F)c2)sc1C(=O)N[C@H]1CCCNC1 [AZD7762] (partner 0.2 µM)	HCC-78	0.475
COc1nc(C)cnc1NS(=O)(=O)c1cccnc1-c1ccc(-c2nnco2)cc1 [Zibotentan] + COc1cccc2cc(-c3nc([C@H]4CC[C@H](C(=O)O)CC4)n4ncnc(N)c34)[nH]c12 [OSI-027] (partner 0.5 µM)	HCC-78	0.332
O=c1cc(-c2cccc3c2Sc2ccccc2S3)oc(N2CCOCC2)c1 + CC1(C)CCC(c2ccc(Cl)cc2)=C(CN2CCN(c3ccc(C(=O)NS(=O)(=O)c4ccc(N[C@H](CCN5CCOCC5)CSc5ccccc5)c(S(=O)(=O)C(F)(F)F)c4)cc3)CC2)C1 [Navitoclax] (partner 0.5 µM)	HCC-78	0.978
COc1nc(C)cnc1NS(=O)(=O)c1cccnc1-c1ccc(-c2nnco2)cc1 [Zibotentan] + Cc1nc(Nc2ncc(C(=O)Nc3c(C)cccc3Cl)s2)cc(N2CCN(CCO)CC2)n1 [Dasatinib] (partner 0.075 µM)	HCC-78	0.313
O=c1cc(-c2cccc3c2Sc2ccccc2S3)oc(N2CCOCC2)c1 + CC(C)C[C@H](NC(=O)[C@H](Cc1ccccc1)NC(=O)c1cnccn1)B(O)O [Bortezomib] (partner 0.002 µM)	HCC-78	0.48
O=c1cc(-c2cccc3c2Sc2ccccc2S3)oc(N2CCOCC2)c1 + Cc1cc(Nc2cc(N3CCN(C)CC3)nc(Sc3ccc(NC(=O)C4CC4)cc3)n2)n[nH]1 [Tozasertib] (partner 0.1 µM)	HCC-78	0.457

Continue with the molecule presented below.
Prompt line: Query relative viability on HCC-78 for O=c1cc(-c2cccc3c2Sc2ccccc2S3)oc(N2CCOCC2)c1 + CC(=O)c1c(C)c2cnc(Nc3ccc(N4CCNCC4)cn3)nc2n(C2CCCC2)c1=O [Palbociclib] (partner 0.5 µM)
Response line: 0.458

====

- System: NCI-H1437
- test-method-notes: relative viability (nuclei count vs DMSO), 5 days (fraction); higher = more cells survive
- condition-summary: first compound 0.08 µM
// values below are reported relative viability
Lab note: jot down the number only; don't add units.

Examples with their reported relative viability follow.
compound	recorded-metric	observed-measurement
O=c1cc(-c2cccc3c2Sc2ccccc2S3)oc(N2CCOCC2)c1 + NC(=O)Nc1cc(-c2cccc(F)c2)sc1C(=O)N[C@H]1CCCNC1 [AZD7762] (partner 0.2 µM)	relative viability	1.07
O=c1cc(-c2cccc3c2Sc2ccccc2S3)oc(N2CCOCC2)c1 + Nc1nc2[nH]cc(CCc3ccc(C(=O)N[C@@H](CCC(=O)O)C(=O)O)cc3)c2c(=O)[nH]1 [Pemetrexed] (partner 0.2 µM)	relative viability	0.339
O=c1cc(-c2cccc3c2Sc2ccccc2S3)oc(N2CCOCC2)c1 + Nc1ncn([C@H]2C[C@H](O)[C@@H](CO)O2)c(=O)n1 [Decitabine] (partner 2 µM)	relative viability	0.573

Alright, here's another compound for you.
Prompt line: Lab note: need relative viability for O=c1cc(-c2cccc3c2Sc2ccccc2S3)oc(N2CCOCC2)c1 + N=C(N)NC(=N)NCCc1ccccc1 [Phenformin] (partner 250 µM) on NCI-H1437, anyone have it?
Response line: 0.271
